target: UniProt:P31749
Sequence (P31749 whole entry): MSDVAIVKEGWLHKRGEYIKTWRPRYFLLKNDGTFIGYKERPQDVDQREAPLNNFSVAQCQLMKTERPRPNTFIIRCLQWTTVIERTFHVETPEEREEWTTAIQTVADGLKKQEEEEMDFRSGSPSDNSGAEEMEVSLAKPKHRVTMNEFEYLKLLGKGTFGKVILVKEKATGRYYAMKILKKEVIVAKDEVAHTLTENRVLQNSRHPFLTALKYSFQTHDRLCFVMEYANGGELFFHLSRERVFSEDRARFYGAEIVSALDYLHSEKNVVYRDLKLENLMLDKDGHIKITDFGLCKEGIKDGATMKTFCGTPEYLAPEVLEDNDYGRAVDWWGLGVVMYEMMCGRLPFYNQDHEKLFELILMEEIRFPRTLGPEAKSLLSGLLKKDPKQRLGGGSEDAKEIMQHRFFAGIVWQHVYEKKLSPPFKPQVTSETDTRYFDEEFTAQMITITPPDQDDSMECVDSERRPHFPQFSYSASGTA
readout.type: IC50 (µM)
API: value field is a number in µM; no unit string.

>>> obs_value("Cc1nc(C)c(-c2ccnc(Nc3ccc(N(C)C)c([N+](=O)[O-])c3)n2)s1 [Compound 25]")
61

Let us examine a further case.
Exercise: What value of IC50 has been recorded for this entry: Cc1nc(C)c(-c2ccnc(Nc3ccc(N(C)C)c(Cl)c3)n2)s1 [Compound 26]
Key: 6.3

###

target: CDK1-cyclin B1 complex (Homo sapiens); construct: His6; assay: Kinase specificity assay CDK1/B1; details: Table 2
Sequence (P06493 whole entry): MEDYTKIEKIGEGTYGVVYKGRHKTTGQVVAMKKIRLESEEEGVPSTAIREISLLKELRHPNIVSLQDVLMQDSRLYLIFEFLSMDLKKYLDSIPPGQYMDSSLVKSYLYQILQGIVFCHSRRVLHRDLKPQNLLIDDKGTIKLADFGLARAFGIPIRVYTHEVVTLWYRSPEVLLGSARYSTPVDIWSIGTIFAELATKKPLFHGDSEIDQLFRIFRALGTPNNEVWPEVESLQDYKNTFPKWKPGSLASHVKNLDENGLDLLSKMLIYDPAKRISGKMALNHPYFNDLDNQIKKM
Sequence (P14635 whole entry partner): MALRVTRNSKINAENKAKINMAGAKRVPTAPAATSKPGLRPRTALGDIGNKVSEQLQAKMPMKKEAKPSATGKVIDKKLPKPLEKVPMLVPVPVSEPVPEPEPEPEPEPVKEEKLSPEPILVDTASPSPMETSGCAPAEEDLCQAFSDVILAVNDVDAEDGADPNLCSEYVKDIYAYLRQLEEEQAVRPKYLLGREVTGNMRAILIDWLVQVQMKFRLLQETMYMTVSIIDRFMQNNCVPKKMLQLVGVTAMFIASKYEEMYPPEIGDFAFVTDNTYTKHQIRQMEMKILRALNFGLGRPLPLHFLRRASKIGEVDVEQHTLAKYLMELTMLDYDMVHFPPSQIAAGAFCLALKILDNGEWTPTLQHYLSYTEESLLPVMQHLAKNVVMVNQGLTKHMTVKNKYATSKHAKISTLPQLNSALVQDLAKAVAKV
readout.type: IC50 (nM)
API: value field is a number in nM; no unit string.

Exercise: What value of IC50 has been recorded for this entry: Cc1nc(C)c(-c2ccnc(Nc3ccc(N(C)C)c([N+](=O)[O-])c3)n2)s1 [Compound 25]
Key: 120

###

tested on: A549; experiment: 72-h MTT cytotoxicity assay, A549; type: cell-based, human; details: Homo sapiens, A549, 72 h, read-out: 72-h MTT IC50 A549; Table 3; Lung
Recorded measurements of pIC50, one per entry
Just so you know, pIC50 here is -log10 of the concentration in molar units; reply with that number alone.

Exercise: What value of pIC50 has been recorded for this entry: `Cc1nc(N)sc1-c1ccnc(Nc2cccc(I)c2)n1`
Key: 6.22

Exercise: Moving on to the next compound: `Cc1nc(N)sc1-c1ccnc(Nc2cccc(Br)c2)n1`
Key: 5.88

Exercise: Moving on to the next compound: `Cc1nc(N)sc1-c1ccnc(Nc2ccc(CCO)cc2)n1`
Key: 6.02

###

test system: A549; experiment: 72-h MTT cytotoxicity assay, A549; type: cell-based, human; settings: Homo sapiens, A549, 72 h, read-out: 72-h MTT in vitro IC50 (μM) A549
readout.type: IC50 (µM)
API: value field is a number in µM; no unit string.

Exercise: What value of IC50 has been recorded for this entry: Cc1nc(C)c(-c2ccnc(Nc3ccc(N(C)C)c([N+](=O)[O-])c3)n2)s1 [Compound 25]
Key: 0.43

###

tested on: A549; experiment: 72-h MTT cytotoxicity assay, A549; format: cell-based, human; conditions: Homo sapiens, A549, read-out: 72-h MTT in vitro IC50 (μM) A549; Table 1; 72 h
# label = criterion met if IC50 < 0.4 µM else criterion not met

>>> discrete_label("COc1ccc(Nc2nccc(-c3sc(C)nc3C)n2)cc1OC [Compound 23]")
"criterion not met"

Exercise: State whether 0.4 µM exceeds IC50 recorded for Cc1nc(NS(C)(=O)=O)sc1-c1ccnc(Nc2cccc([N+](=O)[O-])c2)n1 [Compound 56] .
Key: criterion met

Exercise: Moving on to the next compound: Cc1nc(N)sc1-c1ccnc(Nc2ccc(CCO)cc2)n1 [Compound 15]
Key: criterion not met

Exercise: Moving on to the next compound: COc1ccc(Nc2nccc(-c3sc(=O)n(C)c3C)n2)cc1 [Compound 36]
Key: criterion not met

Exercise: Moving on to the next compound: Cc1ccc(Nc2nccc(-c3sc(=O)n(C)c3C)n2)cc1I [Compound 40]
Key: criterion not met

Exercise: Moving on to the next compound: Cc1nc(N)sc1-c1ccnc(Nc2cccc(Cl)c2)n1 [Compound 9]
Key: criterion not met

Exercise: Moving on to the next compound: Cc1nc(NCCO)sc1-c1ccnc(Nc2cccc([N+](=O)[O-])c2)n1 [Compound 58]
Key: criterion met

Exercise: Moving on to the next compound: Cc1nc(N)sc1-c1ccnc(Nc2ccc(C(F)(F)F)cc2)n1 [Compound 7]
Key: criterion not met

Exercise: Moving on to the next compound: Cc1ccc(Nc2nccc(-c3sc(=O)n(C)c3C)n2)cc1[N+](=O)[O-] [Compound 42]
Key: criterion met

Exercise: Moving on to the next compound: Cc1nc(N)sc1-c1ccnc(Nc2ccc(N(C)C)cc2)n1 [Compound 2]
Key: criterion not met
